Test system: immobility
Assay: Behavioral Despair
Format: in vivo
Conditions: Rattus norvegicus, ip; rats; i.p.; glass cylinder filled with water; read-out: ED50 (dose at which immobility is reduced by 50%)
recorded_metric: ED50 (mg/kg)
Write down the numeric answer in mg/kg and omit the unit.

Would you kindly share the measured ED50 for O=C1c2ccccc2C(=O)N1CCCCN1CCN(c2ncc(-c3ccccc3)cn2)CC1 [Example 4] ? 12

Would you kindly share the measured ED50 for CCOC(=O)N1CCN(c2ncc(-c3ccccc3)cn2)CC1 [Example 54] ? 20

Would you kindly share the measured ED50 for COc1ccc(-c2cnc(N3CCN(CCCCN4C(=O)c5ccccc5C4=O)CC3)nc2)cc1OC [Example 12] ? 50

Would you kindly share the measured ED50 for O=C1c2ccccc2C(=O)N1CCCCN1CCN(c2ncc(-c3c(F)cccc3Cl)cn2)CC1 [Example 8] ? 33
